test: recombinant barcode read abundance after kanamycin selection (control-corrected) (log10(CPM+1)); higher = more efficient recombination; sequences stand for … in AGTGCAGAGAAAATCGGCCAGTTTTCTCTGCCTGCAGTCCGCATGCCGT…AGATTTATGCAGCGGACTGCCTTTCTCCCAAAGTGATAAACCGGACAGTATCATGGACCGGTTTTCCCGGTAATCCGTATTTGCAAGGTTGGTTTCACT; site = the 11-nt target;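 also: IS621 recombinase and bridge RNA in Escherichia coli cells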
Assign class 1 whenever recombinant barcode read abundance (log10) does not fall below 0.1; assign class 0 whenever it does.

{"Record sequence": "AGTGCTCCTTGGGTTCTAACCTGTTGCGG (site AGAGCTCCTCC)", "Classification": "class 1"}
{"Record sequence": "GGCGCCTCTTGGGTTCTAACCTGTTGCGC (site AATCTAACTAG)", "Classification": "class 1"}
{"Record sequence": "AGAGAATCTTGGGTTCTAACCTGTTGCCT (site AGCGAATCTAG)", "Classification": "class 1"}
{"Record sequence": "CGTAAACCTTGGGTTCTAACCTGTTGCGT (site CGTGAACCTAC)", "Classification": "class 1"}
{"Record sequence": "CGTATCTCTTGGGTTCTAACCTGTTGCCT (site CCAATCTCTAG)", "Classification": "class 0"}
{"Record sequence": "AACAGGGCTTGGGTTCTAACCTGTTGCCG (site TGGCATCCTAC)", "Classification": "class 0"}
{"Record sequence": "GTGGCGTCTTGGGTTCTAACCTGTTGCCT (site GTGGCGTCTAG)", "Classification": "class 1"}
{"Record sequence": "ATCAGTTCTTGGGTTCTAACCTGTTGCTG (site ATCAGTTCTCA)", "Classification": "class 0"}
{"Record sequence": "CTGAGAGCTTGGGTTCTAACCTGTTGCCT (site CGGAGAGCTAG)", "Classification": "class 1"}
{"Record sequence": "TCAGGAGCTTGGGTTCTAACCTGTTGCTA (site TCAGGAGCTTA)", "Classification": "class 1"}
